# assayOverview: Clinical trial in healthy volunteers: 5-MeO-DMT and bufotenine plasma levels
# Assay type: in vivo, human
# studyConditions: human, plasma, inhaled, 6 mg, 1 hour after administration; Part A 6 mg (n = 6); range 0.09-0.64; read-out: 5-MeO-DMT plasma levels, group median

# molecule, concentration at 1 h, ng/mL
rows = [
    ("COc1ccc2[nH]cc(CCN(C)C)c2c1 [5-MeO-DMT, 5-methoxy-N,N-dimethyltryptamine]", 0.33),
]

====

# assayOverview: Clinical trial in healthy volunteers: 5-MeO-DMT and bufotenine plasma levels
# Type: in vivo, human
# studyConditions: human, plasma, inhaled, 2 mg, 3 hours after administration; Part A 2 mg (n = 4); range 0.01-0.04; read-out: 5-MeO-DMT plasma levels, group median
# Protocol: A clinical trial was performed in which 5-MeO-DMT free base (purity not less than 99%) at different dose levels was administered via inhalation (as described in Example 1) in a single day to healthy volunteers who had prior experiences with the use of synthetic or naturally-occurring psychedelics. The trial was reviewed and approved by the relevant national competent authority and local medical ethics committee. […]

# structureAsSmiles, unit, concentration at 3 h
data = [
    ("COc1ccc2[nH]cc(CCN(C)C)c2c1", "ng/mL", 0.03),
]

====

# assayOverview: Clinical trial in healthy volunteers: 5-MeO-DMT and bufotenine plasma levels
# Type: in vivo, human
# studyConditions: human, plasma, inhaled, 2 mg, 1 hour after administration; Part A 2 mg (n = 4); range 0.03-0.69; read-out: 5-MeO-DMT plasma levels, group median
quantity: concentration at 1 h (ng/mL)

# structureAsSmiles, numericValue
records = [
    ("COc1ccc2[nH]cc(CCN(C)C)c2c1", 0.38),
]

====

# assayOverview: Clinical trial in healthy volunteers: 5-MeO-DMT and bufotenine plasma levels
# Format: in vivo, human
# studyConditions: human, plasma, inhaled, 12 mg, 1 hour after administration; Part A 12 mg (n = 4); range 0.13-0.29; read-out: 5-MeO-DMT plasma levels, group median

# structureAsSmiles, concentration at 1 h [ng/mL]
rows = [
    ("COc1ccc2[nH]cc(CCN(C)C)c2c1", 0.19),
]

====

# assayOverview: Clinical trial in healthy volunteers: 5-MeO-DMT and bufotenine plasma levels
# Assay type: in vivo, human
# studyConditions: human, plasma, inhaled, 12 mg, 3 hours after administration; Part A 12 mg (n = 4); range 0.01-0.01; read-out: 5-MeO-DMT plasma levels, group median

# structureAsSmiles, unit, concentration at 3 h
records = [
    ("COc1ccc2[nH]cc(CCN(C)C)c2c1", "ng/mL", 0.01),
]
